- Test details: AUC (0 to infinity) in Sprague-Dawley rat at 320 mg/kg, po by HPLC/MS/MS analysis
- Assay type: ADME, organism-based
- Parameters: dose 320 mg/kg, route oral, time infinity
- Experimental parameters: plasma
Readout kind: AUC(0-inf) (ng·h/mL)
Value expressed in ng·h/mL; do not type the unit.

Quick one: AUC(0-inf) of Cc1nc(-c2ccc(Cl)cc2)nc(OCCCN2CCCCC2)c1Cl ? 55400

###

Recorded measurements of LD50 at 24 h, one per entry
- Test details: Acute toxicity in po dosed Kun Ming mouse after 24 hrs
- Format: organism-based
- Experimental parameters: in vivo
All answers are understood in mg/kg, so give the number only.

Example entries begin here.
Cc1ccc(-c2nc(C)c(Cl)c(OCCCN3CCCCC3)n2)cc1    1680
Cc1nc(-c2ccccc2)nc(OCCCN2CCCCC2)c1Cl    440
Cc1nc(-c2ccc(F)cc2)nc(OCCCN2CCCCC2)c1Cl    884

Recorded LD50 at 24 h of Cc1nc(-c2ccc(C(F)(F)F)cc2)nc(OCCCN2CCCCC2)c1Cl , please. 377

###

- Test details: Displacement of [3H]-DTG from sigma-2 receptor in Dunkin Hartley guinea pig brain membrane after 120 mins by liquid scintillation counting analysis in presence of (+)-SKF10047
- Set-up: species or system Cavia porcellus
Consider the following molecules and their measured Ki readings.
Just the number in nM, nothing appended.

Cc1nc(-c2ccccc2)nc(OCCCN2CCCCC2)c1C    1220
Cc1cc(OCCOCCN2CCOCC2)nc(-c2ccccc2)n1    1920
CCc1cc(OCCCN2CCCCC2)nc(-c2ccccc2)n1    1140

Which value of Ki has been reported for Cc1cc(OCCCN2CCC(O)CC2)nc(-c2ccccc2)n1 in the records? 1760

Try this molecule next: Cc1cc(OCCCN2CCOCC2)nc(-c2ccccc2)n1 949

###

- Test target: Sigma non-opioid intracellular receptor 1 (Cavia porcellus, UniProt Q60492)
- Sequence (Q60492 whole entry): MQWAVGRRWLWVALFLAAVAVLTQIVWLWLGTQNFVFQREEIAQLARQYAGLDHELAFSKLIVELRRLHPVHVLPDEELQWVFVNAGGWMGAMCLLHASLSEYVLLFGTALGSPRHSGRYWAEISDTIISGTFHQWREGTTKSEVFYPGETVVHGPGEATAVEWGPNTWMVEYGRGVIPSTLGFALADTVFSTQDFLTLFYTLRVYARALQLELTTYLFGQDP
- Test details: Displacement of [3H]-(+)-pentazocine from sigma-1 receptor in Dunkin Hartley guinea pig brain membranes after 180 mins by liquid scintillation counting analysis
Ki under 10 nM gets Satisfied, anything at or over 10 nM gets Not satisfied.

Below are worked cases with known answers.
Cc1cc(OCCCN2CCCN(C)CC2)nc(-c2ccccc2)n1    Not satisfied
Cc1nc(-c2ccccc2)nc(OCCCN2CCCCC2)c1F    Satisfied
Cc1cc(OCCCN2CCC(O)CC2)nc(-c2ccccc2)n1    Not satisfied
Cc1cc(OCCCN2CCN(C(=O)OC(C)(C)C)CC2)nc(-c2ccccc2)n1    Not satisfied
Cc1cc(OCCCN2CCN(C)CC2)nc(-c2ccccc2)n1    Not satisfied
Cc1ccc(-c2nc(C)c(Cl)c(OCCCN3CCCCC3)n2)cc1    Satisfied
Cc1nc(-c2ccc3ccccc3c2)nc(OCCCN2CCCCC2)c1Cl    Not satisfied
Cc1cc(OCCCCN2CCOCC2)nc(-c2ccccc2)n1    Not satisfied
Cc1cc(OCCCN2CCN(c3ccccc3)CC2)nc(-c2ccccc2)n1    Not satisfied
COc1cc(OCCCN2CCCC2)nc(-c2ccccc2)n1    Not satisfied

Please determine if c1ccc(-c2cc(OCCCN3CCCCC3)nc(-c3ccccc3)n2)cc1 is below 10 nM in terms of Ki. Not satisfied

// same read-out, input: Cc1cc(OCCCN2C(C)(C)CCCC2(C)C)nc(-c2ccccc2)n1 Not satisfied

// same read-out, input: Cc1cc(OCCCN2CCCCC2)nc(-c2ccccc2)n1 Not satisfied

Next compound up: Cc1cc(OCCCN2CCCC2)nc(-c2ccccc2)n1 Not satisfied

Just for reference, ChEMBL document CHEMBL3351343 is where these values come from.
